These data points were gathered from patent US8030354B2.

# targetOrSystem: GPR40 (Homo sapiens, UniProt O14842)
# Sequence (O14842 whole entry): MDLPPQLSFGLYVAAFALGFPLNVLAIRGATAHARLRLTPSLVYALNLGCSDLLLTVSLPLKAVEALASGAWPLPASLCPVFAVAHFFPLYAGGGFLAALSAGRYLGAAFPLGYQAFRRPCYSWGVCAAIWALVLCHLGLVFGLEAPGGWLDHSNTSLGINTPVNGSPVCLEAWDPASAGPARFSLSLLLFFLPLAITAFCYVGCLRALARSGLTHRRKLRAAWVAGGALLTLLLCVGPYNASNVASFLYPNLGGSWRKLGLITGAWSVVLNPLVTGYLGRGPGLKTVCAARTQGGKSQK
# assayComment: Inositol phosphate accumulation assay (A9_GPR40 cells)
# Format: cell-based
# Design: expressed in transfected cells; host or cells: CHO cells stably transfected with GPR40 and aequorin
# conditions: inositol phosphate assay, A9_GPR40 cells, 1 hour; read-out: IP3 EC50
pEC50: −log10 of the molar value.
In this section we review reported pEC50 values for a set of compounds.

Worked examples follow.
{"columns": ["compound", "targetOrSystem", "pEC50"],
 "data": [
  ["CC1(C)CCC[C@@H]1c1cc(COc2cccc([C@@H](CC(=O)O)C3CC3)c2)ccc1-c1cccc(OC(F)F)c1 (single isomer, unassigned)", "GPR40 (Homo sapiens, UniProt O14842)", "7.00 to 8.00"],
  ["COc1ccc(F)c(-c2ccc(COc3cccc([C@@H](CC(=O)O)C4CC4)c3F)cc2[C@H](OC)C(C)(C)OC)c1 (single isomer, unassigned)", "GPR40 (Homo sapiens, UniProt O14842)", "7.00 to 8.00"],
  ["CC[C@H](CC(=O)O)c1cccc(OCc2ccc(-c3cc(C(F)F)ccc3F)c(C3=CCCC3(C)C)c2)c1F (single isomer, unassigned)", "GPR40 (Homo sapiens, UniProt O14842)", "6.00 to 7.00"],
  ["CCC(CC(=O)O)c1cc(F)cc(OCc2ccc(-c3cc(OC)ccc3F)c(C3CCCC3(C)C)c2)c1 (single isomer, unassigned)", "GPR40 (Homo sapiens, UniProt O14842)", "> 8.00"]
]}

Fill blank: measured pEC50 of the compound COc1ccc(F)c(-c2ccc(COc3cccc(C(CC(=O)O)C4CC4)c3F)cc2CC(C)(C)C)c1 (single isomer, unassigned) is ____.
> 8.00

Fill blank: measured pEC50 of the compound COc1cccc(-c2ccc(COc3cccc(CCC(=O)O)c3)cc2OC(F)(F)F)c1 is ____.
< 6.00

---

In this section we review reported pEC50 values for a set of molecules.
# targetOrSystem: GPR40 (Homo sapiens, UniProt O14842)
# assayComment: Cell-based aequorin assay (CHO cells stably expressing GPR40 and aequorin)
# Set-up: expressed in transfected cells; host or cells: CHO cells stably transfected with GPR40 and aequorin
# conditions: activation of human GPR40, CHO cells, 0.01% HSA
pEC50: −log10 of the molar value.

{"columns": ["molecule", "pEC50"],
 "data": [
  ["COc1ccc(F)c(-c2ccc(COc3cccc(CCC(=O)O)c3)cc2C(C)(C)C)c1 [Example 34]", "6.00 to 7.00"]
]}

Fill blank: measured pEC50 of the molecule CO[C@@H](c1cc(COc2cccc([C@@H](CC(=O)O)C3CC3)c2)ccc1-c1ccccc1F)C(C)(C)C (single isomer, unassigned) [Example 66.32] is ____.
6.00 to 7.00

Fill blank: measured pEC50 of the molecule COc1ccc(F)c(-c2ccc(COc3cccc(CC(C)C(=O)O)c3)cc2C2CCCC2(C)C)c1 (single isomer, unassigned) [Example 63.2] is ____.
6.00 to 7.00

---

In this section we review reported EC50 values for a set of molecules.
# targetOrSystem: GPR40 (Homo sapiens, UniProt O14842)
# assayComment: Inositol phosphate accumulation assay (A9_GPR40 cells)
# Assay type: cell-based
# Parameters: expressed in transfected cells; host or cells: CHO cells stably transfected with GPR40 and aequorin
# conditions: inositol phosphate assay, A9_GPR40 cells, 1 hour; read-out: IP3 EC50

Worked examples follow.
{"columns": ["molecule", "EC50"],
 "data": [
  ["COc1ccc(F)c(-c2ccc(COc3cccc(C(CC(=O)O)C4CC4)c3F)cc2C2CCCC2(C)C)c1 (single isomer, unassigned) [Example 83.1]", "< 10 nM"],
  ["COc1ccc(F)c(-c2ccc(COc3cccc([C@@H](CC(=O)O)C4CC4)c3)cc2CN2[C@H](C)CC[C@H]2C)c1 (single isomer, unassigned) [Example 66.71]", "100 to 1000 nM"]
]}

The record that follows has no EC50 shown yet.
Fill blank: measured EC50 of the molecule COc1ccc(F)c(-c2ccc(COc3cccc([C@@H](CC(=O)O)C4CC4)c3)cc2CC(C)C)c1 (single isomer, unassigned) [Example 66.20] is ____.
10 to 100 nM
